Source listed as patent US20230348462A1.

- protocol.description: Solubility in DMSO
- Assay type: physicochemical
- conditions: organic solvent or mixture, free base
readout: solubility

Data request, read-out solubility, for CN(C)CCNC(=O)Nc1ccc(-c2ccc3ncc4c(c3c2)n(C2CCOCC2)c(=O)n4C)cn1 [Ex. 7] < 10 mM
